# tested_on: human chemokine receptor 2 isoform B (Homo sapiens)
# assay_protocol: Calcium mobilization assay (CHOK1-CCR2B-A5 cells, FLIPR, MCP-1 stimulated)
# reported_conditions: Ca mobilisation assay for CCR2, antagonist activity, 50% inhibition of specific calcium increases after 20 nM MCP-1
pIC50: −log10 of the molar value.
Decide using pIC50: a value greater than or equal to 8 is Criterion met, a smaller one is Criterion not met.

Check the entry C[C@H]1C(=O)N2[C@@H](CCN3CCC4(CC4)[C@H](O)C3)COC[C@H]2CN1C(=O)Nc1ccc(Cl)c(Cl)c1 [Example 31] : does pIC50 equal or exceed 8?
Criterion met

###

Overview of recorded IC50 for various compounds
# tested_on: human chemokine receptor 2 isoform B (Homo sapiens, UniProt P41597)
# Sequence (P41597 1-360 isoform P41597-2): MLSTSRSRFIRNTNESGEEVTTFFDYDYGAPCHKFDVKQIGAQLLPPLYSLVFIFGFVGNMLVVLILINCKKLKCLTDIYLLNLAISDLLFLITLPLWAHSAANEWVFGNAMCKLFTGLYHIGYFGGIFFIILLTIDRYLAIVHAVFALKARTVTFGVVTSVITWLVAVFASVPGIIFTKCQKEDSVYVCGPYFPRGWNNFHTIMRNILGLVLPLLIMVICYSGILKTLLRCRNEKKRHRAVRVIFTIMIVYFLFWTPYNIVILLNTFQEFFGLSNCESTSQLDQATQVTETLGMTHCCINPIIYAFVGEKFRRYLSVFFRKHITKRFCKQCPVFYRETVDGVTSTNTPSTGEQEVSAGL
# assay_protocol: Calcium mobilization assay (CHOK1-CCR2B-A5 cells, FLIPR, MCP-1 stimulated)
# reported_conditions: Ca mobilisation assay for CCR2, antagonist activity, 50% inhibition of specific calcium increases after 20 nM MCP-1
Reply with just the number (in µM).

# annotated cases, reported IC50 shown
| compound | tested_on | IC50, µM |
| --- | --- | --- |
| C[C@H]1C(=O)N2[C@@H](CCN3CCC4(CC4)[C@H](O)C3)CO[C@@H]2CN1C(=O)Nc1cccc(C(F)(F)F)c1 [Example 9] | human chemokine receptor 2 isoform B (Homo sapiens, UniProt P41597) | 0.0689 |
| C[C@H]1C(=O)N2[C@@H](CCN3CCC4(CC4)[C@H](O)C3)COC[C@H]2CN1C(=O)Nc1ccc(C(F)(F)F)c(Cl)c1 [Example 32] | human chemokine receptor 2 isoform B (Homo sapiens, UniProt P41597) | 0.0021 |

We next turn to a different compound, shown below.
For C[C@H]1C(=O)N2[C@@H](CCCN3CCC4(CC4)[C@H](O)C3)CO[C@]2(C)CN1C(=O)Nc1ccc(Cl)c(Cl)c1 [Example 22] , what is its reported IC50?
0.0274
